Listed below: aptazyme ON/OFF ratio values for each entry.
B1: Pistol ribozyme (parent)
chain: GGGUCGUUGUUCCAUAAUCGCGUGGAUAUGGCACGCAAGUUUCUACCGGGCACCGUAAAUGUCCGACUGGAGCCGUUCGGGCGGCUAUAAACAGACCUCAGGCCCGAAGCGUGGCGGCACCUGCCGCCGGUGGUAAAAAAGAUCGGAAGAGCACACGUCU

Variants of: B1
Test: aptazyme ON/OFF ratio, guanine; higher = stronger switching; co-transcriptional cleavage with and without guanine
// no unit string in output, number only

Some variants with recorded aptazyme ON/OFF ratio:
aptazyme ON/OFF ratio measured on U7G U8G G9A U10C C13U = 1.59

aptazyme ON/OFF ratio in this record for U7G U10G U11G C12U C13A : 1.13

# variant U7C U8G G9U U10C U11C C12A ; its aptazyme ON/OFF ratio = 1.07

New cases:
The reported aptazyme ON/OFF ratio of the variant U7C U8C U10G C12U was 1.11

GET /value?item= U7A U8A G9U U10C U11A C12A &field=aptazyme ON/OFF ratio returns 1.22

Just so you know, measured aptazyme ON/OFF ratio for U7A U8C G9U U10G U11G C12U came out at 1.25
